biological target: Estrogen receptor (Homo sapiens); experiment: qHTS assay to identify small molecule antagonists of the estrogen receptor alpha (ER-alpha) signaling pathway (AID 743069); conditions: HEK293 ER-alpha-UAS-bla, beta-lactamase ratio, antagonist mode; series mostly up to 69.4 µM; further: potency means the concentration at half of the fitted maximal effect
Activity calls are given as the source filed them. The call rests on the fitted dose curve; in most records, active means well fitted curve in the direction sought with a large enough effect in the signal ratio in the repeat runs (not every such curve was filed as active); inconclusive means weak or mixed curves, or effect the other way; inactive means no such curve, though single readings can be large or run the other way; the % refers to the signal ratio.

{"compound": "O=C(c1ccccc1)c1ccc(O)cc1O", "systemUnderTest": "Estrogen receptor (Homo sapiens)", "Potency": "inactive"}
{"compound": "Cc1cccc(N(C)C(=S)Oc2ccc3ccccc3c2)c1", "systemUnderTest": "Estrogen receptor (Homo sapiens)", "Potency": "inactive"}
{"compound": "COC(=O)C1=C(C)NC(C)=C(C(=O)OCCN(C)Cc2ccccc2)C1c1cccc([N+](=O)[O-])c1 (stereo unspecified)", "systemUnderTest": "Estrogen receptor (Homo sapiens)", "Potency": "23.9 µM [inconclusive] (active)"}
{"compound": "CC(C)OB(OC(C)C)OC(C)C", "systemUnderTest": "Estrogen receptor (Homo sapiens)", "Potency": "inactive"}
{"compound": "CN1C(C(=O)Nc2ccccn2)=C(O)c2ccccc2S1(=O)=O", "systemUnderTest": "Estrogen receptor (Homo sapiens)", "Potency": "inactive"}
{"compound": "O=C(/C=C/C=C/c1ccc2c(c1)OCO2)N1CCCCC1", "systemUnderTest": "Estrogen receptor (Homo sapiens)", "Potency": "inactive"}

###

target: Aryl hydrocarbon receptor (Homo sapiens) (UniProt P35869); test: qHTS assay to identify small molecule that activate the aryl hydrocarbon receptor (AhR) signaling pathway (AID 743085); settings: HepG2 AhR-luc (HG2L7.5c1), luciferase, 24 h; series mostly up to 70.3 µM; further: nearly all actives have a fitted effect of over 15% in size;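 on activation: HG2L7.5c1 human HepG2 liver cells with stably integrated DRE-driven firefly reporter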
Sequence (P35869 whole entry, looked up): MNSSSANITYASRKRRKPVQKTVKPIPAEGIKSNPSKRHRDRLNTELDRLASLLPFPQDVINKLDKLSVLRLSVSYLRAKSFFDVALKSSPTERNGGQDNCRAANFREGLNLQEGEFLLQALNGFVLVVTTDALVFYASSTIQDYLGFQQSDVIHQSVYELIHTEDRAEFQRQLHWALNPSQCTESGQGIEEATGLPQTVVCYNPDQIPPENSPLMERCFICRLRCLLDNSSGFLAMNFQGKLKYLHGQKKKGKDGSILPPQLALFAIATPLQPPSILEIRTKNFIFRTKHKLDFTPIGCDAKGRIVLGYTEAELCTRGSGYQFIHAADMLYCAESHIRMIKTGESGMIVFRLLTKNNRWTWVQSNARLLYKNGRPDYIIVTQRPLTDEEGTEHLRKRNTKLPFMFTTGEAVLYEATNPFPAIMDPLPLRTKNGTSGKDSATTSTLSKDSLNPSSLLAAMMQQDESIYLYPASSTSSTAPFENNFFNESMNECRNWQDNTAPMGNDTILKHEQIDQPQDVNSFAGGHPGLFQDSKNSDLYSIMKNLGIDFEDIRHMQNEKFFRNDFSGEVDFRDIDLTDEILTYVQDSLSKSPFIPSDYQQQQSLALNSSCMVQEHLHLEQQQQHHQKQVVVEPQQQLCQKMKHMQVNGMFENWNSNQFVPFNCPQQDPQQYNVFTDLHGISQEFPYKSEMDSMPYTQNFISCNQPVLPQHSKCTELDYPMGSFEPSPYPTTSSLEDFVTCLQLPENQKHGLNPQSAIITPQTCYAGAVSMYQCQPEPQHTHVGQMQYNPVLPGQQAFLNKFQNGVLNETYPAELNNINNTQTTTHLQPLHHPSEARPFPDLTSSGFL
Records with an inconclusive call do not appear. The source made the active and inactive calls. The call rests on the fitted dose curve; in most records, active means well fitted activation curve with a large enough effect in the repeat runs; inconclusive means weak or mixed curves; inactive means no such curve, though single readings can be large or run the other way.
Classes used: active, inactive

{"molecule": "COc1ccc(C(=O)CC(=O)c2ccc(C(C)(C)C)cc2)cc1", "systemUnderTest": "Aryl hydrocarbon receptor (Homo sapiens) (UniProt P35869)", "labelValue": "inactive"}
{"molecule": "O=CCc1ccccc1", "systemUnderTest": "Aryl hydrocarbon receptor (Homo sapiens) (UniProt P35869)", "labelValue": "inactive"}
{"molecule": "CCC(C)c1ccccc1O (stereo not given)", "systemUnderTest": "Aryl hydrocarbon receptor (Homo sapiens) (UniProt P35869)", "labelValue": "inactive"}
{"molecule": "Cc1c(C(N)=O)cc([N+](=O)[O-])cc1[N+](=O)[O-]", "systemUnderTest": "Aryl hydrocarbon receptor (Homo sapiens) (UniProt P35869)", "labelValue": "inactive"}
{"molecule": "COC(=O)c1ccccc1", "systemUnderTest": "Aryl hydrocarbon receptor (Homo sapiens) (UniProt P35869)", "labelValue": "inactive"}
{"molecule": "c1ccc2sc(SSN3CCOCC3)nc2c1", "systemUnderTest": "Aryl hydrocarbon receptor (Homo sapiens) (UniProt P35869)", "labelValue": "active"}
{"molecule": "CCCCOCCOCCO", "systemUnderTest": "Aryl hydrocarbon receptor (Homo sapiens) (UniProt P35869)", "labelValue": "inactive"}
{"molecule": "Nc1ncnc2nc[nH]c12", "systemUnderTest": "Aryl hydrocarbon receptor (Homo sapiens) (UniProt P35869)", "labelValue": "inactive"}
{"molecule": "COC(C)COC(C)COC(C)CO (stereo not given)", "systemUnderTest": "Aryl hydrocarbon receptor (Homo sapiens) (UniProt P35869)", "labelValue": "inactive"}
{"molecule": "O=C(COc1ccc(Cl)cc1)N1CCN(Cc2ccc3c(c2)OCO3)CC1", "systemUnderTest": "Aryl hydrocarbon receptor (Homo sapiens) (UniProt P35869)", "labelValue": "inactive"}
{"molecule": "CC(C)=CCCC(C)CCO (stereo not given)", "systemUnderTest": "Aryl hydrocarbon receptor (Homo sapiens) (UniProt P35869)", "labelValue": "inactive"}
{"molecule": "CC(=O)C1(C)CC2=C(CCCC2(C)C)CC1C (stereo not given)", "systemUnderTest": "Aryl hydrocarbon receptor (Homo sapiens) (UniProt P35869)", "labelValue": "inactive"}
{"molecule": "Cc1ccc(C)c(O)c1C", "systemUnderTest": "Aryl hydrocarbon receptor (Homo sapiens) (UniProt P35869)", "labelValue": "inactive"}
{"molecule": "Clc1nc(Cl)c(Cl)c(Cl)c1Cl", "systemUnderTest": "Aryl hydrocarbon receptor (Homo sapiens) (UniProt P35869)", "labelValue": "inactive"}
{"molecule": "CCCCC/C=C/C=C/C=O", "systemUnderTest": "Aryl hydrocarbon receptor (Homo sapiens) (UniProt P35869)", "labelValue": "inactive"}

###

test: qHTS assay to identify small molecule antagonists of the androgen receptor (AR) signaling pathway - cell viability counter screen (AID 743033; further: nearly all actives have a fitted effect of over 45% in size); settings: AR-bla HEK293 viability, CellTiter-Glo luminescence, 16 h; series mostly up to 58.5 µM
Results filed as inconclusive are left out. The source made the active and inactive calls. The call rests on the fitted dose curve; in most records, active means well fitted cell-killing curve with a large enough effect in the repeat runs; inconclusive means weak or mixed curves; inactive means no such curve, though single readings can be large or run the other way.
Labels: active, inactive

{"compound": "CCCCC(CC)COC(=O)c1ccc(N(C)C)cc1 (stereo unspecified)", "labelValue": "inactive"}
{"compound": "O=C(c1ccccc1)c1ccc(O)cc1O", "labelValue": "inactive"}
{"compound": "C=CC(C)(CCC=C(C)C)OC(C)=O (stereo unspecified)", "labelValue": "inactive"}
{"compound": "CCOCCOCCO", "labelValue": "inactive"}
{"compound": "O=Cc1ccccc1O", "labelValue": "inactive"}
{"compound": "Cc1cc2nc3c(=O)[nH]c(=O)nc-3n(C[C@H](O)[C@H](O)[C@H](O)CO)c2cc1C", "labelValue": "inactive"}
{"compound": "c1ccc(Nc2ccccc2)cc1", "labelValue": "inactive"}
{"compound": "O=C(COc1ccc(Cl)cc1)N1CCN(Cc2ccc3c(c2)OCO3)CC1", "labelValue": "inactive"}
{"compound": "COC(=O)Nc1nc2ccc(S(=O)c3ccccc3)cc2[nH]1 (stereo unspecified)", "labelValue": "inactive"}
{"compound": "S=C(NC1CCCCC1)NC1CCCCC1", "labelValue": "active"}
{"compound": "CCCCNS(=O)(=O)c1ccccc1", "labelValue": "inactive"}
{"compound": "COc1c(Cl)c(Cl)c(Cl)c(Cl)c1Cl", "labelValue": "inactive"}
{"compound": "O=P(O)(O)O", "labelValue": "inactive"}
{"compound": "O=C1c2cccc(O)c2C(=O)c2c(O)cccc21", "labelValue": "inactive"}
{"compound": "c1cc(N(CC2CO2)CC2CO2)ccc1OCC1CO1 (stereo unspecified)", "labelValue": "inactive"}
{"compound": "O=CCc1ccccc1", "labelValue": "inactive"}
{"compound": "CC(C)CC(C)(O)C#CC(C)(O)CC(C)C (stereo unspecified)", "labelValue": "inactive"}
{"compound": "O=CCCCC=O", "labelValue": "inactive"}
{"compound": "Cc1cccc([N+](=O)[O-])c1C", "labelValue": "inactive"}
{"compound": "O=C=Nc1ccc(Cc2ccc(N=C=O)cc2)cc1", "labelValue": "inactive"}
{"compound": "COC(=O)C1=C(C)NC(C)=C(C(=O)OCCN(C)Cc2ccccc2)C1c1cccc([N+](=O)[O-])c1 (stereo unspecified)", "labelValue": "active"}
{"compound": "OC1CCCCCCCCCCC1", "labelValue": "inactive"}
{"compound": "CC1=CCC(C(C)(C)O)CC1 (stereo unspecified)", "labelValue": "inactive"}
{"compound": "COC(=O)CCC(=O)OC", "labelValue": "inactive"}
{"compound": "CCCCOCCOCCO", "labelValue": "inactive"}
{"compound": "CN(C)C(=N)N=C(N)N", "labelValue": "inactive"}
{"compound": "COc1ccc(OC)c(C(O)CNC(=O)CN)c1 (stereo unspecified)", "labelValue": "inactive"}
{"compound": "OCCO", "labelValue": "inactive"}
{"compound": "CN(C)c1nc(N(C)C)nc(N(C)C)n1", "labelValue": "inactive"}
{"compound": "CCCCCCCCCC(=O)OC", "labelValue": "inactive"}
{"compound": "CCC(C)c1ccccc1O (stereo unspecified)", "labelValue": "inactive"}

###

experiment: qHTS assay to identify small molecule antagonists of the estrogen receptor alpha (ER-alpha) signaling pathway using the BG1 cell line - cell viability counter screen (AID 743081); conditions: BG1Luc4E2 viability, CellTiter-Fluor, 22 h; series mostly up to 70.3 µM;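 further: compound given together with 17beta-estradiol as the ER stimulus; nearly all actives have a fitted effect of over 45% in size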
Results filed as inconclusive are left out. Activity calls are given as the source filed them. Calls follow the shape of the dose curve; as a rule, active = well fitted cell-killing curve with a large enough effect in the repeat runs; inconclusive = weak or mixed curves, or effect the other way; inactive = flat fitted curve, though single readings scatter.
Outcome codes: active, inactive

{"compound": "c1ccc2c(c1)c1cccc3ccc4cccc2c4c31", "labelValue": "inactive"}
{"compound": "Cc1ccc(C)c(O)c1C", "labelValue": "inactive"}
{"compound": "CNCCCC12CCC(c3ccccc31)c1ccccc12", "labelValue": "inactive"}
{"compound": "CC(CCC(=O)O)(c1ccc(O)cc1)c1ccc(O)cc1", "labelValue": "inactive"}
{"compound": "CCOCCOCCO", "labelValue": "inactive"}
{"compound": "CN(C)c1nc(N(C)C)nc(N(C)C)n1", "labelValue": "inactive"}
{"compound": "OC(CCl)CCl", "labelValue": "inactive"}
{"compound": "CCCC(=O)O", "labelValue": "inactive"}
{"compound": "OCCO", "labelValue": "inactive"}
{"compound": "COC(=O)C1=C(C)NC(C)=C(C(=O)OCCN(C)Cc2ccccc2)C1c1cccc([N+](=O)[O-])c1 (centres undefined)", "labelValue": "active"}
{"compound": "O=C(Nc1ccc(Cl)cc1)Nc1ccc(Cl)c(Cl)c1", "labelValue": "inactive"}
{"compound": "O=C=Nc1ccc(Cc2ccc(N=C=O)cc2)cc1", "labelValue": "inactive"}
{"compound": "CC(C(=O)O)c1cccc(C(=O)c2ccccc2)c1 (centres undefined)", "labelValue": "inactive"}
{"compound": "O=C(/C=C/C=C/c1ccc2c(c1)OCO2)N1CCCCC1", "labelValue": "inactive"}
{"compound": "CCCCC(CC)COC(=O)c1ccc(N(C)C)cc1 (centres undefined)", "labelValue": "inactive"}
{"compound": "C[Si](C)(C)O[Si](C)(C)C", "labelValue": "inactive"}
{"compound": "Nc1ccc(Cl)cc1Cl", "labelValue": "inactive"}
{"compound": "C[C@]12CCC(=O)C=C1CC[C@@H]1[C@@H]2C(=O)C[C@@]2(C)[C@H]1CC[C@]2(O)C(=O)CO", "labelValue": "inactive"}
{"compound": "CCCCC/C=C/C=C/C=O", "labelValue": "inactive"}
{"compound": "COC(C)COC(C)COC(C)CO (centres undefined)", "labelValue": "inactive"}
{"compound": "C=CC(C)(CCC=C(C)C)OC(C)=O (centres undefined)", "labelValue": "inactive"}
{"compound": "c1ccc2cc(Nc3ccc(Nc4ccc5ccccc5c4)cc3)ccc2c1", "labelValue": "inactive"}
{"compound": "O=C(OCc1ccccc1)c1ccccc1O", "labelValue": "inactive"}
{"compound": "c1cc(N(CC2CO2)CC2CO2)ccc1OCC1CO1 (centres undefined)", "labelValue": "inactive"}
{"compound": "CCOC(=O)C(C#N)=C(c1ccccc1)c1ccccc1", "labelValue": "inactive"}
{"compound": "c1ccncc1", "labelValue": "inactive"}
{"compound": "COc1ccc(OC)c(C(O)CNC(=O)CN)c1 (centres undefined)", "labelValue": "inactive"}
{"compound": "O=C(O)c1ccccc1Nc1cccc(C(F)(F)F)c1", "labelValue": "inactive"}
{"compound": "COc1ccccc1/C=C/C=O", "labelValue": "inactive"}
